# Tested on: LHPP gene
# measurement.notes: High-throughput screening of saRNAs targeting LHPP promoter: LHPP mRNA by one-step RT-qPCR in Huh7 cells
# Format: cell-based, human
# condition: 10 nM saRNA, 72 hours, relative to control (Mock)
d = 2'-deoxy (DNA); r = 2'-OH (RNA)
Give measured Fold of changes in relative LHPP mRNA expression level (log2) for each item. Keep answers brief.
Returns: string containing the numeric result and its unit.

substance | obs.value
RAG7-114: saRNA duplex; sense CCUGGGAAGAAAGCUUCCGTT (SEQ ID NO: 73), antisense CGGAAGCUUUCUUCCCAGGTT (SEQ ID NO: 237) (sugars from the 5' end r19 d2, backbone not given here) | 0.36 log2

API: the following record is the query input.
Task item: Would you mind telling me what Fold of changes in relative LHPP mRNA expression level (log2) value was observed for RAG7-97: saRNA duplex; sense CGAAAAGGACACCGUUUCATT (SEQ ID NO: 71), antisense UGAAACGGUGUCCUUUUCGTT (SEQ ID NO: 235) (sugars from the 5' end r19 d2, backbone not given here) ?
Reply: 0.37 log2

* * *

# Tested on: LHPP gene
# measurement.notes: High-throughput screening of saRNAs targeting LHPP promoter: LHPP mRNA by one-step RT-qPCR in Huh7 cells
# Assay type: cell-based, human
# condition: 10 nM saRNA, 72 hours, relative to control (Mock)
d = 2'-deoxy (DNA); r = 2'-OH (RNA)
observed.property: Fold of changes in relative LHPP mRNA expression level (log2)
Answers are plain numbers, in log2.

Use these answered entries as a reference point.
substance | unit.spec | obs.value
RAG7-137: saRNA duplex; sense UCCUGCUCUUUGUCCGCUGTT (SEQ ID NO: 151), antisense CAGCGGACAAAGAGCAGGATT (SEQ ID NO: 315) (sugars from the 5' end r19 d2, backbone not given here) | log2 | 0.16
RAG7-741: saRNA duplex; sense CCUCCUGGGUUUAACGCAUTT (SEQ ID NO: 95), antisense AUGCGUUAAACCCAGGAGGTT (SEQ ID NO: 259) (sugars from the 5' end r19 d2, backbone not given here) | log2 | 0.30
RAG7-162: saRNA duplex; sense UUCUUAGGGACUUGUUUUCTT (SEQ ID NO: 19), antisense GAAAACAAGUCCCUAAGAATT (SEQ ID NO: 183) (sugars from the 5' end r19 d2, backbone not given here) | log2 | 0.64

API: the following record is the query input.
Task item: Would you mind telling me what Fold of changes in relative LHPP mRNA expression level (log2) value was observed for RAG7-677: saRNA duplex; sense AUCUAUGCAGGGCUGUUAUTT (SEQ ID NO: 20), antisense AUAACAGCCCUGCAUAGAUTT (SEQ ID NO: 184) (sugars from the 5' end r19 d2, backbone not given here) ?
Reply: 0.64

* * *

# System: LHPP gene
# measurement.notes: High-throughput screening of saRNAs targeting LHPP promoter: LHPP mRNA by one-step RT-qPCR in Huh7 cells
# Assay type: cell-based, human
# condition: 10 nM saRNA, 72 hours, relative to control (Mock)
d = 2'-deoxy (DNA); r = 2'-OH (RNA)
observed.property: Fold of changes in relative LHPP mRNA expression level (fold)
Numbers only, in fold.

Use these answered entries as a reference point.
substance | obs.value
RAG7-172: saRNA duplex; sense CCUUUGACCUUUCUUAGGGTT (SEQ ID NO: 81), antisense CCCUAAGAAAGGUCAAAGGTT (SEQ ID NO: 245) (sugars from the 5' end r19 d2, backbone not given here) | 1.27
RAG7-909: saRNA duplex; sense UUGAAAGCUCAAAGCUAUGTT (SEQ ID NO: 23), antisense CAUAGCUUUGAGCUUUCAATT (SEQ ID NO: 187) (sugars from the 5' end r19 d2, backbone not given here) | 1.53
RAG7-122: saRNA duplex; sense GCUGAUCUCCUGGGAAGAATT (SEQ ID NO: 103), antisense UUCUUCCCAGGAGAUCAGCTT (SEQ ID NO: 267) (sugars from the 5' end r19 d2, backbone not given here) | 1.21
RAG7-134: saRNA duplex; sense UGCUCUUUGUCCGCUGAUCTT (SEQ ID NO: 75), antisense GAUCAGCGGACAAAGAGCATT (SEQ ID NO: 239) (sugars from the 5' end r19 d2, backbone not given here) | 1.28
RAG7-188: saRNA duplex; sense UUCUUGUCUCAAUUUGCCUTT (SEQ ID NO: 21), antisense AGGCAAAUUGAGACAAGAATT (SEQ ID NO: 185) (sugars from the 5' end r19 d2, backbone not given here) | 1.55
RAG7-890: saRNA duplex; sense UUGGACCAGAAGUAAAGUGTT (SEQ ID NO: 76), antisense CACUUUACUUCUGGUCCAATT (SEQ ID NO: 240) (sugars from the 5' end r19 d2, backbone not given here) | 1.28

For each of the substances below, note its Fold of changes in relative LHPP mRNA expression level.
1. RAG7-677: saRNA duplex; sense AUCUAUGCAGGGCUGUUAUTT (SEQ ID NO: 20), antisense AUAACAGCCCUGCAUAGAUTT (SEQ ID NO: 184) (sugars from the 5' end r19 d2, backbone not given here)
2. RAG7-185: saRNA duplex; sense UUGUCUCAAUUUGCCUUUGTT (SEQ ID NO: 116), antisense CAAAGGCAAAUUGAGACAATT (SEQ ID NO: 280) (sugars from the 5' end r19 d2, backbone not given here)

Reply:
1: 1.56; 2: 1.19

* * *

# Tested on: LHPP gene
# measurement.notes: High-throughput screening of saRNAs targeting LHPP promoter: LHPP mRNA by one-step RT-qPCR in Huh7 cells
# Type: cell-based, human
# condition: 10 nM saRNA, 72 hours, relative to control (Mock)
d = 2'-deoxy (DNA); r = 2'-OH (RNA)
Give measured Fold of changes in relative LHPP mRNA expression level (log2) for each item. Keep answers brief.
Answers are plain numbers, in log2.

Use these answered entries as a reference point.
substance | obs.value
RAG7-34: saRNA duplex; sense GUUUGCACCCGGUCUUCUUTT (SEQ ID NO: 26), antisense AAGAAGACCGGGUGCAAACTT (SEQ ID NO: 190) (sugars from the 5' end r19 d2, backbone not given here) | 0.59
RAG7-180: saRNA duplex; sense UCAAUUUGCCUUUGACCUUTT (SEQ ID NO: 58), antisense AAGGUCAAAGGCAAAUUGATT (SEQ ID NO: 222) (sugars from the 5' end r19 d2, backbone not given here) | 0.43
RAG7-715: saRNA duplex; sense GUCCCGUUUUCUUCUCAGCTT (SEQ ID NO: 148), antisense GCUGAGAAGAAAACGGGACTT (SEQ ID NO: 312) (sugars from the 5' end r19 d2, backbone not given here) | 0.18

API: the following record is the query input.
Task item: Would you mind telling me what Fold of changes in relative LHPP mRNA expression level (log2) value was observed for RAG7-184: saRNA duplex; sense UGUCUCAAUUUGCCUUUGATT (SEQ ID NO: 16), antisense UCAAAGGCAAAUUGAGACATT (SEQ ID NO: 180) (sugars from the 5' end r19 d2, backbone not given here) ?
Reply: 0.67

* * *

# Tested on: LHPP gene
# measurement.notes: High-throughput screening of saRNAs targeting LHPP promoter: LHPP mRNA by one-step RT-qPCR in Huh7 cells
# Format: cell-based, human
# condition: 10 nM saRNA, 72 hours, relative to control (Mock)
# Protocol: Human liver cancer cell line Huh7 was cultured in DMEM medium (Gibco), containing 10% of calf serum (Sigma-Aldrich) and 1% of penicillin/streptomycin (Gibco). The cells were cultured at 5% CO2 and 37° C. According to the instructions provided by the manufacturer, RNAiMax (Invitrogen, Carlsbad, Calif.) was used to transfect small activating RNAs at a concentration of 10 nM (unless otherwise specified). […]
d = 2'-deoxy (DNA); r = 2'-OH (RNA)
observed.property: Fold of changes in relative LHPP mRNA expression level (log2)
Answers are plain numbers, in log2.

substance | unit.spec | obs.value
RAG7-198: saRNA duplex; sense UACAGGUGCCUUCUUGUCUTT (SEQ ID NO: 134), antisense AGACAAGAAGGCACCUGUATT (SEQ ID NO: 298) (sugars from the 5' end r19 d2, backbone not given here) | log2 | 0.21
RAG7-193: saRNA duplex; sense GUGCCUUCUUGUCUCAAUUTT (SEQ ID NO: 113), antisense AAUUGAGACAAGAAGGCACTT (SEQ ID NO: 277) (sugars from the 5' end r19 d2, backbone not given here) | log2 | 0.26
RAG7-894: saRNA duplex; sense UAUGUUGGACCAGAAGUAATT (SEQ ID NO: 37), antisense UUACUUCUGGUCCAACAUATT (SEQ ID NO: 201) (sugars from the 5' end r19 d2, backbone not given here) | log2 | 0.54

For each of the substances below, note its Fold of changes in relative LHPP mRNA expression level (log2).
1. RAG7-33: saRNA duplex; sense UUUGCACCCGGUCUUCUUGTT (SEQ ID NO: 119), antisense CAAGAAGACCGGGUGCAAATT (SEQ ID NO: 283) (sugars from the 5' end r19 d2, backbone not given here)
2. RAG7-832: saRNA duplex; sense CCAUUGAGGAAACUCCUCCTT (SEQ ID NO: 139), antisense GGAGGAGUUUCCUCAAUGGTT (SEQ ID NO: 303) (sugars from the 5' end r19 d2, backbone not given here)
3. RAG7-720: saRNA duplex; sense UGAUAGUCCCGUUUUCUUCTT (SEQ ID NO: 62), antisense GAAGAAAACGGGACUAUCATT (SEQ ID NO: 226) (sugars from the 5' end r19 d2, backbone not given here)
4. RAG7-846: saRNA duplex; sense AAGGUUCCGAGGGGCCAUUTT (SEQ ID NO: 11), antisense AAUGGCCCCUCGGAACCUUTT (SEQ ID NO: 175) (sugars from the 5' end r19 d2, backbone not given here)
5. RAG7-726: saRNA duplex; sense GCAUUGUGAUAGUCCCGUUTT (SEQ ID NO: 127), antisense AACGGGACUAUCACAAUGCTT (SEQ ID NO: 291) (sugars from the 5' end r19 d2, backbone not given here)

Reply:
1. 0.24
2. 0.19
3. 0.41
4. 0.75
5. 0.22
